# GI50 per entry
tested on: OVCAR-4; experiment: NCI tumour cell line growth inhibition, 48 h
The source made the active and inactive calls. Cut-off read from the data, not from the text of the source: active = GI50 up to about 1.1 µM and inactive = higher.
Quantity: GI50

1) O=C1CC(c2ccccc2)NCCCCN2CC(CN1)C(C(O)c1ccccc1)C2=O (stereo not given) : > 100 µM (inactive)
2) Cc1ccc2c(c1)C1(C)OC(C=CC1=O)O2 (stereo not given) : 0.774 µM (active)
3) CCc1c2c([nH]c(=S)c1C#N)CCC2 : > 100 µM (inactive)
4) Cc1cc(C)c2nccc(NCCCN(C)C)c2c1[N+](=O)[O-] : 13.8 µM (inactive)
5) Cc1ccc(S(=O)(=O)NC(CN)C(=O)O)cc1 (stereo not given) : > 100 µM (inactive)
6) C[C@H]1ON2CCC[C@@H]2[C@@H]1C(=O)N1C2CC3CCC2(CS1(=O)=O)C3(C)C (stereo not given in full) : > 100 µM (inactive)
7) Cc1ccc(C2=CC(=O)c3ccccc3C2=O)n1-c1ccccc1 : 25.6 µM (inactive)
8) O=C1NCC2(CCN(CC3COc4ccccc4O3)CC2)N1c1ccccc1 (stereo not given) : > 100 µM (inactive)
9) O=C(O)c1cccc(Nc2c(C(=O)O)cccc2[N+](=O)[O-])c1 : > 100 µM (inactive)
10) S=c1[nH]n2c(CCCCCCCCc3nnc4sc(=S)[nH]n34)nnc2s1 : > 100 µM (inactive)

----------
system: K562; assay: NCI tumour cell line growth inhibition, 48 h
Activity calls are given as the source filed them. No stated cut-off is given here; in the data, active = GI50 up to about 1.1 µM and inactive = higher.
Outcomes: 1 for active, 0 for inactive

1) CC(=O)N1CN2C(=O)CCC2c2ccccc21 (centres undefined) : 0
2) c1ccc2c(c1)CCN2CCN1CCc2ccccc21 : 0
3) CCCCCC/C(CC(=O)CCC(=O)NCCc1ccccc1)=N\Nc1ccc([N+](=O)[O-])cc1[N+](=O)[O-] : 0
4) Clc1cc(Cl)nc(Nc2ccc3c(c2)CCC3)n1 : 0
5) CCCc1nnc2sc(COc3ccc(OCc4nn5c(CCC)nnc5s4)c(Cl)c3)nn12 : 0
6) S=C1Nc2ccccc2SC1c1ccccc1 (centres undefined) : 0
7) N#CC(C#N)=C/C=C/c1ccccc1[N+](=O)[O-] : 0
8) O=C(O)c1ccc([I+]c2ccccc2)cc1 : 0
9) CCCNc1[nH]c(C(C)=O)c(N)c1C(=S)Nc1ccccc1 : 0
10) O=C1CSC(/C(=C/c2ccccc2)c2nc3ccccc3[nH]2)=N1 : 0
11) CC(C)(Oc1ccc(-c2cccc3ccccc23)cc1)C(=O)O : 0
12) CC(=O)Oc1ccccc1[C@H]1CC(=O)C[C@H](c2ccccc2OC(C)=O)C12C(=O)c1ccccc1C2=O : 0
13) CCSC12CC3c4cccc5c4C(CN5C(=O)c4ccccc4)CC3(O1)N(C)C2=O (centres undefined) : 0
14) Nc1nc(Cl)cc(NCC2(CO)CC(CCCc3ccccc3)C2)n1 (centres undefined) : 0
15) COc1ccc(-c2cc(-c3ccccc3)c3c(n2)-c2ccccc2NC(=O)C3)cc1 : 0
16) CC(C)(C)c1cc(Br)c(O)c(CN(Cc2cc(C(C)(C)C)cc(Br)c2O)C2CCCCC2)c1 : 0
17) CCCC(=O)OC1CC(n2cc(F)c(=O)[nH]c2=O)OC1COP(=O)(OCC(Cl)(Cl)Cl)OCC(Cl)(Cl)Cl (centres undefined) : 0
18) CC(=O)Oc1ccccc1C(=O)C1c2cccc(O)c2C(=O)c2c(O)cccc21 : 1
19) Cc1ncc([N+](=O)[O-])n1CCNC(=O)Cn1c([N+](=O)[O-])cnc1C : 0
20) N#CCC1(c2ccc(Cl)cc2)NC(=O)c2ccccc21 (centres undefined) : 0
21) CCOC(=O)C(=C=Cc1cccs1)C(=O)c1ccccc1 : 0
22) COc1c(OC2OC(CO)C(O)C(O)C2O)cc2c(c1OC)-c1ccc(OC)c(=O)cc1[C@@H](NC(C)=O)CC2 (some centres undefined) : 0
23) O=c1[nH]cc(F)c(=O)n1C1OC(CO)C(O)C1O (centres undefined) : 0
24) Cc1[nH]c(=O)[nH]c(=O)c1/C=C/C(=O)NC(CO)CC(C)C (centres undefined) : 0
25) O=C1NCC2(CCN(CC3COc4ccccc4O3)CC2)N1c1ccccc1 (centres undefined) : 0
26) O=C1OC(C2Cc3cc4c(cc3C2=O)CCC4)c2ccccc21 (centres undefined) : 0
27) CCOC(=O)C(Cc1c2ccccc2cc2ccccc12)(NC(C)=O)C(=O)OCC : 0
28) NC(=O)C(=O)n1ncc(Cl)c(Cl)c1=O : 0
29) CCOC(=O)/C(C#N)=C\C=C1/C=CN=C2NCCN21 : 0
30) COCN1CCN=c2c1c1c3c(c4ccccc4n23)CCC1 : 0
31) Cc1ccc(SSCCCCCS(=O)O)cc1 : 0
32) COCn1c2ccc(OC(C)=O)cc2c2c(=O)oc(N(C)C)nc21 : 0
33) [N-]=[N+]=NC(c1cn(C2CC(O)C(CO)O2)c(=O)[nH]c1=O)C(Br)Br (centres undefined) : 0
34) COc1ccc(-c2nc3c(nc2-c2ccc(OC)cc2)N(C)S(=O)(=O)N=C3N)cc1 : 0

----------
test system: NCI/ADR-RES; assay: NCI tumour cell line growth inhibition, 48 h
The source made the active and inactive calls. Rule as the data show it: active = GI50 up to about 1.1 µM and inactive = higher.
In this section, each of the compounds is paired with its reported GI50.
Quantity: GI50

1) CCCC(=O)OC1CC(n2cc(F)c(=O)[nH]c2=O)OC1COP(=O)(OCC(Cl)(Cl)Cl)OCC(Cl)(Cl)Cl (configuration not stated) : 1.17 µM (inactive)
2) COc1nc2c(c(=O)[nH]1)N=C(c1ccc([N+](=O)[O-])cc1)CC(c1ccccc1)N2 (configuration not stated) : > 100 µM (inactive)
3) O=C(CSCC(=O)N/N=C/c1ccc(F)cc1)N/N=C/c1ccc(F)cc1 : > 100 µM (inactive)
4) Cc1c(-c2ccccc2)nn2cc(-c3ccccc3)nnc12 : 39.1 µM (inactive)
5) c1ccc(CSc2nc(N3CCOCC3)c3cn[nH]c3n2)cc1 : 15.2 µM (inactive)
6) Cc1ccc2c3c1O[C@H]1c4[nH]c5ccccc5c4C[C@@]4(O)[C@@H](C2)N(CC2CC2)CC[C@]314 : 19.1 µM (inactive)
7) c1csc(-c2ccc(-c3ccsc3)s2)c1 : > 100 µM (inactive)
8) Cc1ccc(S(=O)(=O)NC(CN)C(=O)O)cc1 (configuration not stated) : > 100 µM (inactive)
9) CCOC(=O)c1ccc(/N=C/C=C(\Nc2ccc(C(=O)OCC)cc2)C23CC4CC(CC(C4)C2)C3)cc1 : > 100 µM (inactive)
10) CC(=O)O[C@H]1CCc2c(cc(N)c3c2C(=O)C[C@]2(C)C([C@H](C)CCCC(C)C)CCC32C)C1(C)C (some centres not stated) : 42.4 µM (inactive)
11) CC(Nc1ncc2c(n1)-c1ccccc1OC2)C(=O)O (configuration not stated) : > 100 µM (inactive)
12) C/C(=N\NC(=O)c1ccncc1)c1cccc(F)c1 : > 10 µM (inactive)
13) COc1cccc(-c2c(C#N)c(N)nc3c2CCS(=O)(=O)c2ccc(C)cc2-3)c1 : > 100 µM (inactive)
14) COc1cccc(/C=C/c2cnc3ccccc3n2)c1OC : 18.5 µM (inactive)
15) COc1ccc(C(O)CNC(=O)c2ccccc2)cc1 (configuration not stated) : > 100 µM (inactive)
16) Cc1ccc(C)n1-n1c(Cc2ccccc2)n[nH]c1=O : > 100 µM (inactive)
17) C[N+](C)(C)c1ncnc2c1ncn2C1CCCO1 (configuration not stated) : > 100 µM (inactive)
18) O=C1Nc2ccccc2/C1=N/Nc1nc(-c2ccc([N+](=O)[O-])cc2)cs1 : 15.6 µM (inactive)
19) O=C(N/N=C/c1ccccc1)c1c(-c2cccnc2)cnc2ccccc12 : 69.5 µM (inactive)
20) CCCCSCCC(N)P(=O)(O)O (configuration not stated) : > 100 µM (inactive)
21) CC(Oc1ccccc1Cl)C(=O)NN1C(=O)CC(=O)N(c2ccccc2)C1=S (configuration not stated) : 38.5 µM (inactive)
22) COC(=O)n1c(=O)n(-c2ccccc2)c(=O)n1C(=O)OC : > 100 µM (inactive)
23) Cc1c(C)c(S(=O)(=O)N(CCCN)OCCCN)c(C)c2c1OC(C)(C)C2 : > 100 µM (inactive)
24) O=S(=O)(c1ccc(I)cc1)N(c1ccccc1)S(=O)(=O)C(F)(F)C(F)(F)C(F)(F)C(F)(F)F : 43.3 µM (inactive)
25) CN(C)C(=O)Oc1ccc[n+](C)c1 [PYRIDOSTIGMINE BROMIDE] : > 100 µM (inactive)
26) C[C@H]1ON2CCC[C@@H]2[C@@H]1C(=O)N1C2CC3CCC2(CS1(=O)=O)C3(C)C (some centres not stated) : > 100 µM (inactive)
27) COc1ccc(C)cc1Nc1nnc(-c2ccccc2N)s1 : 34.8 µM (inactive)
28) O=c1oc2ccccc2cc1-c1cn2c(n1)sc1ccccc12 : > 100 µM (inactive)
29) COC(OC)[C@@H]1OC[C@H](n2ccc(=O)[nH]c2=O)[C@H]1O : > 100 µM (inactive)
30) CC1(C)CSCC(C)(C)C(=N/N)/C1=N\N : > 100 µM (inactive)
31) CN1C(=O)c2c(ccc3c2OCO3)C2C(O)Cc3cc4c(cc3C21)OCO4 (configuration not stated) : 3.03 µM (inactive)
32) COc1ccccc1-c1cc(O)c2cc(C)cnc2n1 : 15 µM (inactive)

Measured values drawn from ChEMBL document CHEMBL1201862 for this set.
